molecules and their reported GI50
system: DU-145; test: Growth inhibition of human DU145 cells after 96 hrs by trypan blue exclusion assay; format: functional; details: DU-145, 96 h

// below: answered molecules
Cc1ccc(S/C(=C/c2c[nH]c3ccccc23)C(=O)c2ccc(Cl)cc2)cc1
10 µM
Cc1ccc(S(=O)(=O)/C(=C/c2c(O)cc(O)cc2O)C(=O)c2ccc(Br)cc2)cc1
> 100 µM

Below: the item to evaluate.
Briefly, GI50 measured for CN(C)c1ccc(/C=C(\C(=O)c2ccc(Cl)cc2)S(=O)(=O)c2ccc(Br)cc2)cc1 : > 100 µM

* * *

tested on: DU-145; test: Growth inhibition of human DU145 cells after 96 hrs by trypan blue exclusion assay; assay type: functional; settings: DU-145, 96 h
readout: GI50 (µM)
Numeric answer only, unit µM assumed.

// below: answered compounds
O=C(/C(=C\c1cccc(Cl)c1Cl)SCc1ccc(Cl)cc1)c1ccc(Br)cc1
10
O=C(/C(=C\c1ccc(OCc2ccccc2)cc1)SCc1ccc(Cl)cc1)c1ccc(Cl)cc1
1
O=C(/C(=C\c1ccc(F)cc1C(F)(F)F)[S+]([O-])Cc1ccc(Cl)cc1)c1ccc(Cl)cc1 (centres undefined)
50
O=C(/C(=C\c1ccc(Oc2ccccc2)cc1)SCc1ccccc1Cl)c1ccc(Cl)cc1
1
Cc1ccc(/C=C(/SCc2ccc(Cl)cc2Cl)C(=O)c2ccc(Cl)cc2)s1
50

Briefly, GI50 measured for COc1ccccc1/C=C(/SCc1ccc(Cl)cc1)C(=O)c1ccc(Br)cc1 : 1

Briefly, GI50 measured for Cc1ccc(CS/C(=C/c2ccc(F)c(C)c2)C(=O)c2ccc(Cl)cc2)cc1 : 25
